Molecular target: Bifunctional epoxide hydrolase 2 (Mus musculus, UniProt P34914)
Sequence (P34914 whole entry): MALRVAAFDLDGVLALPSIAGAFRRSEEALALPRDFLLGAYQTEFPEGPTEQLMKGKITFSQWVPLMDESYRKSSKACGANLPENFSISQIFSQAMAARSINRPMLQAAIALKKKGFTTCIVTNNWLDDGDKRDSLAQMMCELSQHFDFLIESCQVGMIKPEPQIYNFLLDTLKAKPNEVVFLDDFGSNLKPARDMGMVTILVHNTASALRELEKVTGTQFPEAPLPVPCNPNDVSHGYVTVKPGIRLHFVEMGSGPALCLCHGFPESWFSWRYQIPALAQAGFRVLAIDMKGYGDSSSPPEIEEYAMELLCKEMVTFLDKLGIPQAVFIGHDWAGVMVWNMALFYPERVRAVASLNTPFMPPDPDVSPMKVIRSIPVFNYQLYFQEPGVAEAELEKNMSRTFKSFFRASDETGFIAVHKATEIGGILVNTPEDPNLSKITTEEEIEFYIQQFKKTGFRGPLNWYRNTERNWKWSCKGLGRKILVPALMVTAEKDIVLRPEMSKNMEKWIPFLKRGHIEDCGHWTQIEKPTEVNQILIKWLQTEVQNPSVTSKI
Assay: Inhibition of murine soluble epoxide hydrolase expressed in baculovirus infected Sf21 cells using NEPC as substrate by fluorescence based assay
pIC50: recorded values
To interpret pIC50, take it as minus log10 of a concentration measured in moles per litre.

In [3]: df
Out[3]:
                                   molecule  numeric_value
0  CC(=O)N1CCC(NC(=O)NC23CC4(C)CC2CC4(C)C3)CC1           8.48

Which pIC50 value belongs to CC(=O)N1CCC(NC(=O)NC2C3CC4C5CC6CC4C2C(C6)C5C3)CC1 (configuration not stated) ?
8.30

====

Below, each of the compounds is paired with its reported remaining at 1 h value.
Assay: Microsomal stability in human microsomes assessed as parent compound remaining in presence of NADP, glucose-6-phosphate and glucose-6-phosphate dehydrogenase measured after 60 mins by UPLC-MS/MS analysis
Number only, in %; omit the unit.

Please review the following examples before continuing.
>>> print(df.to_string())
                                   compound      assay_metric  numeric_value
0  CC(=O)N1CCC(NC(=O)NC2C3CC4C5CC6CC4C2C(C6)C5C3)CC1 (stereo unspecified)  remaining at 1 h              0
1  CC(=O)N1CCC(NC(=O)NC23CC4(C)CC2CC4(C)C3)CC1  remaining at 1 h           59.3
2  CC(=O)N1CCC(NC(=O)NC23CC4CC(CC2C4)C3)CC1  remaining at 1 h           88.7

// remaining at 1 h lookup, key: O=C(NC1C2CC3C4CC5CC3C1C(C5)C4C2)N[C@H]1CC[C@H](Oc2ccc(C(=O)O)cc2)CC1 (stereo partly specified)
14.6

Subsequent entry: CC12CC3CC1(C)CC3(NC(=O)Nc1ccc(F)c(F)c1F)C2
30

Also check C[C@]12CC[C@H]3[C@@H](CCC4=CC(=O)CC[C@@]43C)[C@@H]1CC[C@@H]2O
22.4

====

Assay: Apparent permeability across apical to basolateral membrane in human Caco2 cells at 10 uM measured after 2 hrs by UPLC-MS/MS analysis
Details: caco-2, 2 h
ASSAY METRIC: Papp
# number then unit; no other words

Would you please look over these solved cases?
In [3]: df
Out[3]:
                                   compound  assay_metric            result
0  CC(=O)N1CCC(NC(=O)NC2C3CC4C5CC6CC4C2C(C6)C5C3)CC1 (centres undefined)          Papp  15.62 ×10⁻⁶ cm/s
1  O=C(Nc1ccc(F)c(F)c1F)NC12CC3CC(CC(C3)C1)C2          Papp   1.18 ×10⁻⁶ cm/s
2  O=C(NC1C2CC3C4CC5CC3C1C(C5)C4C2)N[C@H]1CC[C@H](Oc2ccc(C(=O)O)cc2)CC1 (some centres undefined)          Papp   0.31 ×10⁻⁶ cm/s

Now for a further compound.
Looking for the measured Papp of CC(=O)N1CCC(NC(=O)NC23CC4(C)CC2CC4(C)C3)CC1 , can you help?
15.92 ×10⁻⁶ cm/s

====

Test: Apparent permeability across basolateral to apical membrane in human Caco2 cells at 10 uM measured after 2 hrs by UPLC-MS/MS analysis
Details: caco-2, 2 h
Papp reference
The reply should contain only the number, in ×10⁻⁶ cm/s.

>>> df
                                   compound  scale_unit  numeric_value
0  O=C(NC1C2CC3C4CC5CC3C1C(C5)C4C2)N[C@H]1CC[C@H](Oc2ccc(C(=O)O)cc2)CC1 (some centres undefined)  ×10⁻⁶ cm/s           6.75
1  CC(=O)N1CCC(NC(=O)NC2C3CC4C5CC6CC4C2C(C6)C5C3)CC1 (centres undefined)  ×10⁻⁶ cm/s          14.69
2  O=C(Nc1ccc(F)c(F)c1F)NC12CC3CC(CC(C3)C1)C2  ×10⁻⁶ cm/s           0.18

Item CC(=O)N1CCC(NC(=O)NC23CC4(C)CC2CC4(C)C3)CC1 has what recorded Papp?
18.02

Recorded values, source ChEMBL document CHEMBL4396961.
